Test system: S-YU
Assay protocol: Cell proliferation assay (CellTiter Glo), S-YU with IL-2
Format: cell-based
Settings: ATL, after 24 hours of incubation, IL-2 100 IU/mL
Measurement type: IC50 (nM)
Answers are plain numbers, in nM.

Output IC50 of COc1cc(F)ccc1-c1ncnc(Nc2cccc(CS(C)(=N)=O)c2)n1 (single isomer, unassigned; (+))
2960

====

Tested on: OCI-LY-19
Assay protocol: Cell proliferation assay (CellTiter Glo)
Format: cell-based
Settings: Homo sapiens, OCI-LY19; OCI-LY-19, DLBCL, GCB subtype; 72 h
Measurement type: IC50

Quote IC50 with test system OCI-LY-19 for COc1cc(F)ccc1-c1ncnc(Nc2cccc(CS(C)(=N)=O)c2)n1 (single isomer, unassigned; (+)) [Compound A′]
480 nM

====

Tested on: SU-DHL-8
Assay protocol: Cell proliferation assay (CellTiter Glo)
Type: cell-based
Settings: Homo sapiens; SU-DHL-8, DLBCL, GCB subtype; 72 h
Measurement type: IC50 (nM)
Answers are plain numbers, in nM.

State its IC50: COc1cc(F)ccc1-c1ncnc(Nc2cccc(CS(C)(=N)=O)c2)n1 (single isomer, unassigned; (+)) [Compound A′]
610

====

Test system: Ramos
Assay protocol: Cell proliferation assay (CellTiter Glo)
Format: cell-based
Settings: Homo sapiens, Burkitt's lymphoma, 72 h
Measurement type: pIC50
Answers are plain numbers, as −log10 of the molar value.

Send back Ramos pIC50 of COc1cc(F)ccc1-c1ncnc(Nc2cccc(CS(C)(=N)=O)c2)n1 (single isomer, unassigned; (+)) only.
5.96

====

System: TL-Om1
Assay protocol: Cell proliferation assay (CellTiter Glo)
Type: cell-based
Settings: TL-Om1, ATL; 72 h
Measurement type: IC50 (nM)
One number for each entry, in nM.

Respond only with IC50 recorded for COc1cc(F)ccc1-c1ncnc(Nc2cccc(CS(C)(=N)=O)c2)n1 (single isomer, unassigned; (+))
790

====

Test system: KM-H2
Assay protocol: Cell proliferation assay (CellTiter Glo)
Assay type: cell-based
Settings: Homo sapiens; KM-H2, Hodgkin lymphoma; 72 h
Experimental: The proliferation of all lymphoma cell lines, other than S-YU, in the presence of different concentrations of Compound A′ for 72 h was assessed using CellTiter Glo kits (Promega Corporation, Madison, Wis.). Proliferation of S-YU in the presence of recombinant human interleukin-2 (IL-2) at a final concentration of 100 IU/mL, with different concentrations of Compound A′ for 24 h, was assessed in the same manner. […]
Measurement type: IC50 (µM)
Answers are plain numbers, in µM.

Write down IC50 measured for item COc1cc(F)ccc1-c1ncnc(Nc2cccc(CS(C)(=N)=O)c2)n1 (single isomer, unassigned; (+))
2.2
